Target: H3R (Homo sapiens, UniProt Q9Y5N1)
Sequence (Q9Y5N1 whole entry): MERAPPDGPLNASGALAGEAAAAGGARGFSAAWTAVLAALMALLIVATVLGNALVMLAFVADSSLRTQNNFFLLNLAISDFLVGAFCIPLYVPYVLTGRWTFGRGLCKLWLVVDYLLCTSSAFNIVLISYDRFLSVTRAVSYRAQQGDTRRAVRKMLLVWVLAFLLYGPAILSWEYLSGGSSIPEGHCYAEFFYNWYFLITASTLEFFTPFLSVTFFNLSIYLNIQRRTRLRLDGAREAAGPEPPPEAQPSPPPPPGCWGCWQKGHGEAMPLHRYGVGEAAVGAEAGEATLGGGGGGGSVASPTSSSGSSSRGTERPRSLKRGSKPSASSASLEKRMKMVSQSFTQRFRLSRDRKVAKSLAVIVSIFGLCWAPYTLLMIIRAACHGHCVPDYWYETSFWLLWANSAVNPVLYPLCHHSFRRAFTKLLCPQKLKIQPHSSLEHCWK
Experiment: cAMP inhibition by FRET-EPAC biosensor in HEK293-EPAC cells stably expressing H3R
Format: cell-based
Design: expressed in transfected cells; host or cells: HEK293 cells stably expressing EPAC-cAMP FRET biosensor and H3R
Conditions: pEC50 In Dark, inhibition of cAMP induced by 10 nM isoprenaline, FRET after 20 min, kept in dark
Metric Name: EC50 (nM)
Numbers only; they are read as nM.

Using the record for c1nc(CC2CCNCC2)c[nH]1 [immepip, 4-((1H-imidazol-4-yl)methyl)piperidine, reference compound] , report its EC50. 0.0316

====

Field: solubility. Provide a value for each of the molecules that follow.
Test: Nephelometry (aqueous solubility)
Format: physicochemical
Details: 50 mM Tris-HCl buffer with 1% DMSO, pH 7.4, aqueous buffer, kinetic from dmso stock, in the dark, read-out: aqueous solubility (limit)
Reply with the number and its unit after it.

Using the record for "CCC1=C(C)C2=C(COC(=O)N3CCC(Cc4c[nH]cn4)CC3)c3c(C)c(CC)c(C)n3[B-](F)(F)[N+]2=C1C" , report its solubility. 3.2 µM

Using the record for "CCC1=C(C)C2=C(COC(=O)NCCc3nc[nH]c3C)c3c(C)c(CC)c(C)n3[B-](F)(F)[N+]2=C1C" , report its solubility. 3.2 µM

From: paper PMC11053687
